meta.source: patent US20230416363A1

# ASSAY_TARGET: T1, hPD-1-his (human, UniProt Q15116 25-167)
# T1 construct: domain: IgV domain; monomer in solution; biotin-labelled where captured by streptavidin; also called biotin-hPD-1-his
# T1 sequence (Q15116 other isoform, or with tags, fused parts or gaps limits assumed): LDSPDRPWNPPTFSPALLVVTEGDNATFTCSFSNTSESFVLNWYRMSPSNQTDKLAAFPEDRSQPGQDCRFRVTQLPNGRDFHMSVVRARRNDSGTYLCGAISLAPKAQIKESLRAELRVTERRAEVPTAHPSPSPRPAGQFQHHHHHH
# METHOD_NOTES: ELISA, PD-1-his on anti-his
Below, each of the binders is paired with its reported OD at 10 nM value.
MEASUREMENT_NAME: OD at 10 nM (OD)

>>> value_measured("38B2 (antibody, V domains shown, 24H9 derivative, IgG; also called 780_54; hPD1 Ab (38B2)) VH: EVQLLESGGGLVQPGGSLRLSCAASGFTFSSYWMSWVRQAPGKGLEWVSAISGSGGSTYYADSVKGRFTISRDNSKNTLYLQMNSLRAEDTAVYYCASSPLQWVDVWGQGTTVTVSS VL: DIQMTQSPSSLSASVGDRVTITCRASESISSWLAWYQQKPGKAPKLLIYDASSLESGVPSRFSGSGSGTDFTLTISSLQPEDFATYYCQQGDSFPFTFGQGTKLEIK")
0.662
>>> value_measured("32D11 (antibody, V domains shown) VH: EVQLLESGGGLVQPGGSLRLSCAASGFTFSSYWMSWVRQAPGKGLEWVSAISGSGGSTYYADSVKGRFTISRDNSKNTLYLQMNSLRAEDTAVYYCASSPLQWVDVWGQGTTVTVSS VL: DIQMTQSPSSLSASVGDRVTITCRASQSINIWLAWYQQKPGKAPKLLIYDASNLETGVPSRFSGSGSGTDFTLTISSLQPEDFATYYCQQGYSFPFTFGPGTKVDIK")
0.602
>>> value_measured("39G8 (antibody, V domains shown) VH: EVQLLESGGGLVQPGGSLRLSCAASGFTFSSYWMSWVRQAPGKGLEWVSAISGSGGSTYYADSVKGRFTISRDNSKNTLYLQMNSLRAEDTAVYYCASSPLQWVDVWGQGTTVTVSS VL: DIQMTQSPSSLSASVGDRVTITCRASQGISPWLAWYQQKPGKAPKLLIYDASKLETGVPSRFSGSGSGTDFTLTISSLQPEDFATYYCQQAYSFPFTFGGGTKVEIK")
0.484
